# assay.summary: Volume of distribution at steady state in mouse at 5 mg/kg, iv and 40 mg/kg, po
# Type: ADME, organism-based
# measurement.conditions: in vivo, read-out: Vdss

{"entry.smiles": "C#CCn1c(=O)c2c(-c3cncn3C)n(Cc3ccnc4ccc(Cl)cc34)nc2n(CC2CC2)c1=O", "Vd, L/kg": 3.6}
{"entry.smiles": "Cn1cncc1-c1c2c(=O)n(C)c(=O)n(CC3CC3)c2nn1Cc1ccnc2ccc(Cl)cc12", "Vd, L/kg": 1.2}

* * *

Reported MIC values for a set of compounds
# Tested on: Helicobacter pylori
# assay.summary: Antibacterial activity against AcrAB-TolC efflux pump-dificient Helicobacter pylori
# Assay type: functional
property.label: MIC (µg/mL)

{"entry.smiles": "Cn1cc(C#N)cc1-c1c2c(=O)n(CC#CCN3CCOCC3)c(=O)n(CC3CC3)c2nn1Cc1ccnc2ccc(Cl)cc12", "unit.of.measurement": "µg/mL", "value.observed": 4}
{"entry.smiles": "Cn1cc(C#N)cc1-c1c2c(=O)n(C)c(=O)n(CC3CC3)c2nn1Cc1ccnc2ccc(Cl)cc12", "unit.of.measurement": "µg/mL", "value.observed": 0.8}
{"entry.smiles": "C=CCn1c(=O)c2c(-c3cc(C#N)cn3C)n(Cc3ccnc4ccc(Cl)cc34)nc2n(CC2CC2)c1=O", "unit.of.measurement": "µg/mL", "value.observed": 1}

* * *

# assay.summary: Intrinsic clearance in mouse liver microsomes at 2 uM assessed per mg of protein
# Format: ADME, Microsome
# measurement.conditions: read-out: CLH
The entries below come with measured microsomal CLint at 2 µM values attached.
property.label: microsomal CLint at 2 µM

{"entry.smiles": "Cn1cc(C#N)cc1-c1c2c(=O)n(CC#CCO)c(=O)n(CC3CC3)c2nn1Cc1ccnc2ccc(Cl)cc12", "property.label": "microsomal CLint at 2 µM", "value.observed": "> 100 µL/min/mg"}
{"entry.smiles": "Cc1nc[nH]c1-c1c2c(=O)n(C)c(=O)n(CC3CC3)c2nn1Cc1ccnc2ccc(Cl)cc12", "property.label": "microsomal CLint at 2 µM", "value.observed": "> 100 µL/min/mg"}
{"entry.smiles": "CC(C)Cn1c(=O)n(C)c(=O)c2c(-c3cccn3C)n(Cc3ccnc4ccc(Cl)cc34)nc21", "property.label": "microsomal CLint at 2 µM", "value.observed": "> 100 µL/min/mg"}
{"entry.smiles": "CCn1c(=O)c2c(-c3nc(C#N)cn3C)n(Cc3ccnc4ccc(Cl)cc34)nc2n(CC2CC2)c1=O", "property.label": "microsomal CLint at 2 µM", "value.observed": "< 14 µL/min/mg"}

* * *

# assay.summary: Intrinsic clearance in human liver microsomes at 2 uM assessed per mg of protein
# Type: ADME, Microsome
# measurement.conditions: read-out: CLH

{"entry.smiles": "Cn1cnnc1-c1c2c(=O)n(C)c(=O)n(CC3CC3)c2nn1Cc1ccnc2ccc(Cl)cc12", "microsomal CLint at 2 µM": "< 14 µL/min/mg"}
{"entry.smiles": "C#CCn1c(=O)c2c(-c3cncn3C)n(Cc3ccnc4ccc(Cl)cc34)nc2n(CC2CC2)c1=O", "microsomal CLint at 2 µM": "< 14 µL/min/mg"}
{"entry.smiles": "Cn1cc(C#N)nc1-c1c2c(=O)n(C3CC3)c(=O)n(CC3CC3)c2nn1Cc1ccnc2ccc(Cl)cc12", "microsomal CLint at 2 µM": "< 14 µL/min/mg"}
{"entry.smiles": "Cn1cc(C#N)cc1-c1c2c(=O)n(CC#CCn3cncn3)c(=O)n(CC3CC3)c2nn1Cc1ccnc2ccc(Cl)cc12", "microsomal CLint at 2 µM": "> 100 µL/min/mg"}
{"entry.smiles": "Cc1nc(N)sc1-c1c2c(=O)n(C)c(=O)n(CC3CC3)c2nn1Cc1ccnc2ccc(Cl)cc12", "microsomal CLint at 2 µM": "< 14 µL/min/mg"}
